Origin of values: ChEMBL document CHEMBL5257098

# target system: G-protein coupled receptor 35 (Homo sapiens, UniProt Q9HC97)
# Sequence (Q9HC97 whole entry): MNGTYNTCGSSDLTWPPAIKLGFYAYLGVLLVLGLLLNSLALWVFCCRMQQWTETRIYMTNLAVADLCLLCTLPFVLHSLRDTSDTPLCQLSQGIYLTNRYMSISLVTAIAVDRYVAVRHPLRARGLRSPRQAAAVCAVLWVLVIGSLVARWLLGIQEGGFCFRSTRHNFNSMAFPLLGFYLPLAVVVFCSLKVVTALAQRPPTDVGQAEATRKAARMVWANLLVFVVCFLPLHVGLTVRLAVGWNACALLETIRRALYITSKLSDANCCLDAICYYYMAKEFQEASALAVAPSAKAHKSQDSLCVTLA
# protocol details: Agonist activity at GPR-35 in human HT-29 cells by DMR assay
# Assay type: cell-based
readout label: pEC50
Give bare numbers, as −log10 of the molar value.

Worked set:
chem smiles: CC1=CC(C)=[N+]2C1=C(c1ccc(OCCn3cc(CCCCCOc4cc(C(=O)O)nc5c(C)c6nc(C(=O)O)cc(O)c6cc45)nn3)cc1)c1nc(C)cn1[B-]2(F)F
observed: 7.37

chem smiles: CC1=CC(C)=[N+]2C1=C(c1ccc(OCCn3cc(CCCOc4cc(C(=O)O)nc5c(C)c6nc(C(=O)O)cc(O)c6cc45)nn3)cc1)c1nc(C)cn1[B-]2(F)F
observed: 7.09

chem smiles: CC1=CC(C)=[N+]2C1=C(c1ccc(OCCn3cc(CCCCOc4cc(C(=O)O)nc5c(C)c6nc(C(=O)O)cc(O)c6cc45)nn3)cc1)c1nc(C)cn1[B-]2(F)F
observed: 7.31

// moving on: another record for pEC50
Prompt line: Fill in: pEC50 of "CC1=CC(C)=[N+]2C1=C(c1ccc(OCCn3cc(CCOCCOc4cc(C(=O)O)nc5c(C)c6nc(C(=O)O)cc(O)c6cc45)nn3)cc1)c1nc(C)cn1[B-]2(F)F" is ___
Response line: 7.23
